test: In vivo tissue distribution of radioactivity after intravenous administration
Parameters: species or system Sprague Dawley rats
stated-conditions: spleen, iv; rat, i.v., 60 min; read-out: Spleen, Mean % Injected Dose/Gram
reported-metric: tissue uptake at 1 h

molecule | measurement
CC(C[18F])OC(=O)[C@H]1[C@@H](c2ccc(I)cc2)C[C@@H]2CC[C@H]1N2C (stereo partly shown) [[^18 F] FIPIT 8] | 0.4 %ID/g

---

test: In vivo tissue distribution of radioactivity after intravenous administration
Set-up: species or system Sprague Dawley rats
stated-conditions: testis, iv; rat, i.v., 2 min; read-out: Testis, Mean % Injected Dose/Gram
reported-metric: tissue uptake at 2 min

compound | reported-metric | measurement
CC(C[18F])OC(=O)[C@H]1[C@@H](c2ccc(I)cc2)C[C@@H]2CC[C@H]1N2C (stereo partly shown) [[^18 F] FIPIT 8] | tissue uptake at 2 min | 0.14 %ID/g
